Tested on: Klebsiella pneumoniae
Experiment: Antibacterial activity against Klebsiella pneumoniae assessed as growth inhibition at 900 ug/ml by NCCLS […] method
Type: functional
Details: read-out: IZ
# zone of inhibition at 900 µg/mL per record follows
Numeric only. Scale: mm

Please review the entries below; each comes with its answer.
COc1ccc2c(OCCCN3CCN(Cc4ccc(Br)cc4)CC3)c(-c3ccccc3)c(=O)oc2c1 : 6.24
COc1ccc2c(OCCCN3CCN(Cc4ccccc4)CC3)c(-c3ccccc3)c(=O)oc2c1 : 4.98

stdin: Return reported zone of inhibition at 900 µg/mL; argument: "COc1ccc2c(OCCCN3CCN(Cc4ccc(Cl)cc4Cl)CC3)c(-c3ccccc3)c(=O)oc2c1"
stdout: 14

stdin: Return reported zone of inhibition at 900 µg/mL; argument: "CCCOc1ccc(CN2CCN(CCCOc3c(-c4ccccc4)c(=O)oc4cc(OC)ccc34)CC2)cc1"
stdout: 4.25

====

System: Streptococcus pyogenes
Assay: Antibacterial activity against Streptococcus pyogenes assessed as growth inhibition at 900 ug/ml by NCCLS […] method
Assay type: functional
Conditions: read-out: IZ
Measured parameter: zone of inhibition at 900 µg/mL (mm)
Numeric only. Scale: mm

COc1ccc2c(OCCCN3CCN(Cc4ccc(F)cc4F)CC3)c(-c3ccccc3)c(=O)oc2c1 : 10.2
COc1ccc2c(OCCCN3CCN(Cc4ccc[nH]4)CC3)c(-c3ccccc3)c(=O)oc2c1 : 18
COc1ccc2c(OCCCN3CCN(Cc4ccc(Cl)cc4Cl)CC3)c(-c3ccccc3)c(=O)oc2c1 : 6.25

# ---- query molecule ----
stdin: Return reported zone of inhibition at 900 µg/mL; argument: "COc1ccc2c(OCCCN3CCN(Cc4cccnc4)CC3)c(-c3ccccc3)c(=O)oc2c1"
stdout: 16.8

====

Tested on: Staphylococcus aureus
Test: Antibacterial activity against Staphylococcus aureus assessed as growth inhibition at 900 ug/ml by NCCLS […] method
Format: functional
Details: read-out: IZ
# zone of inhibition at 900 µg/mL per record follows
Numeric only. Scale: mm

Please review the entries below; each comes with its answer.
COc1ccc2c(OCCCN3CCN(Cc4ccccc4)CC3)c(-c3ccccc3)c(=O)oc2c1 : 11.2
COc1ccc2c(OCCCN3CCN(Cc4cccnc4)CC3)c(-c3ccccc3)c(=O)oc2c1 : 21.4

# ---- query compound ----
stdin: Return reported zone of inhibition at 900 µg/mL; argument: "COc1ccc2c(OCCCN3CCN(Cc4ccc(Cl)cc4Cl)CC3)c(-c3ccccc3)c(=O)oc2c1"
stdout: 12

====

System: Proteus vulgaris
Assay: Antibacterial activity against Proteus vulgaris assessed as growth inhibition at 600 ug/ml by NCCLS […] method
Type: functional
Conditions: read-out: IZ
Measured parameter: zone of inhibition at 600 µg/mL (mm)
Numeric only. Scale: mm

Please review the entries below; each comes with its answer.
COc1ccc2c(OCCCN3CCN(Cc4cccnc4)CC3)c(-c3ccccc3)c(=O)oc2c1 : 8.76
COc1ccc2c(OCCCN3CCN(Cc4ccc(F)cc4F)CC3)c(-c3ccccc3)c(=O)oc2c1 : 4.2
CCCOc1ccc(CN2CCN(CCCOc3c(-c4ccccc4)c(=O)oc4cc(OC)ccc34)CC2)cc1 : 4.2

# ---- query compound ----
stdin: Return reported zone of inhibition at 600 µg/mL; argument: "COc1ccc2c(OCCCN3CCN(Cc4ccccc4)CC3)c(-c3ccccc3)c(=O)oc2c1"
stdout: 6.54

These data points were gathered from ChEMBL document CHEMBL3045792.
